Hello, the source for this data is patent US20080286284A1, in case you need it.

Overview of reported AVG Max binding across a group of binders:
molecular target: T1, prostate specific membrane antigen (PSMA), full-length human (human, UniProt Q04609 1-750); test: FACS, 3T3-PSMA cells
T1 construct: also called cell-surface PSMA; full-length PSMA
T1 sequence (Q04609 whole entry): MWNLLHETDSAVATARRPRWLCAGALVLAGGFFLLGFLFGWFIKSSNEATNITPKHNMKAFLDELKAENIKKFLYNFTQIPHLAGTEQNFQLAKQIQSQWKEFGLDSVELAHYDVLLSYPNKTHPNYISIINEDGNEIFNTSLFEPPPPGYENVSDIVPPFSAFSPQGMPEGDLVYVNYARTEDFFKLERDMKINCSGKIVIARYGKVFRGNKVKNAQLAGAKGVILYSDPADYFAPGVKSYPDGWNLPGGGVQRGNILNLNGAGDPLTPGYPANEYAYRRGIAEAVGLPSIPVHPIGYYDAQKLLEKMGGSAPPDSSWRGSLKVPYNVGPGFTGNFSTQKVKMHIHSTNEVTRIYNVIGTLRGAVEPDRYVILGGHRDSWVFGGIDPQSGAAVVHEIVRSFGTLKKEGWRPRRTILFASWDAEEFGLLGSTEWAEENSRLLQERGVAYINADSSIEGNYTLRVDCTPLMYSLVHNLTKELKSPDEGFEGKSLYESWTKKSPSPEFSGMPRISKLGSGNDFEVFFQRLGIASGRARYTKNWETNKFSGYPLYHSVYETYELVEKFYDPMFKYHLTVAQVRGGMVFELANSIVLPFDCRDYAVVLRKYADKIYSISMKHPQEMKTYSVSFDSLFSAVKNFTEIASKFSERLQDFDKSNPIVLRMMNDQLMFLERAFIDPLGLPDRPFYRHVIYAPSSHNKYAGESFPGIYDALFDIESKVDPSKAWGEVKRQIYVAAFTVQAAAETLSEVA
Keep the answer to the number alone.

AB-PG1-XG1-051 (antibody, V domains shown, also called XG-051; PRGX1-XG1-051) VH: QVQLVESGGGVVQPGRSLRLSCAASGFTFSSYGMHWVRQAPGKGLDWVAIIWHDGSNKYYADSVKGRFTISRDNSKKTLYLQMNSLRAEDTAVYYCARAWAYDYGDYEYYFGMDVWGQGTTVTVSS VL: DIQMTQSPSSLSASVGDRVTITCRASQGISHYLAWFQQKPGKAPKSLIYAASSLQSGVPSKFSGSGSGTDFTLTISSLQPEDFATYYCQQYNSFPLTFGGGTKVEIK
202

API: the following record is the query input.
**Query** Given the entry AB-PG1-XG1-077 (antibody, V domains shown, also called PRGX1-XG1-077) VH: QVQLVESGGGVVQPGRSLRLSCAASGFTFISYGMHWVRQAPGKGLEWVAVISYDGSNKYYADSVKGRFTISRDNSKNTLYLQMNSLRAEDTAVYYCARVLVGALYYYNYYGMDVWGQGTTVTVSS VL: DIVMTQTPLSLSVTPGQPASISCKSSQSLLHSDGKTFLYWYLQKPGQPPQLLIYEVSNRFSGVPDRFSGSGSGTDFTLKISRVEAEDVGLYYCMQSIQLPLTFGGGTKVEIK , report its measured AVG Max binding.
**Result** 227
